Data provenance: PubChem BioAssay (NCI)

# Tested on: MDA-MB-231 breast
# ASSAY NOTES: NCI-60 one-dose screen, 48 h (100 = growth as untreated, 0 = no growth, -100 = all killed)
# EXPERIMENTAL PARAMETERS: 10 µM
Compounds without any hit were thinned out: in the full panel of roughly 83,000, 20% have a hit.
Listed below: growth values for each entry.
// note: answer is a bare numeric in %

compound=COc1cc(-c2nn(-c3cccc(NC(=O)CN4CCOCC4)c3)cc2-c2cccnc2)ccc1Cl recorded_measurement=83.1
compound=O=C(N/N=C/c1ccc([N+](=O)[O-])cc1)c1ccccc1Nc1cccc(C(F)(F)F)c1 recorded_measurement=80.5
compound=O=C(COc1cccc(/C=C2\CSc3ccccc3C2=O)c1)c1ccc(Cl)cc1 recorded_measurement=68.8
compound=CCC(CC)n1c(C)cc(=O)n1C(CC)CC recorded_measurement=109
compound=CCN(CC)CC(=O)N(CC)c1ccc(C)c(Cl)c1 recorded_measurement=113
compound="CCc1cc(Cl)c(OC)c(C(=O)NCC2CCCN2CC)c1O (stereo not drawn)" recorded_measurement=50.6

## Task Look up growth of O=C(CCCSc1nc(-c2ccc(Cl)cc2)cc(-c2ccc(Cl)cc2)n1)NO and report it.
## Result 14.6

## Task Look up growth of CCCC1(CN2c3ccccc3Sc3ccc(Cl)cc32)CCN(CC)C1 (stereo not drawn) and report it.
## Result -28.4

## Task Look up growth of CCOC(=O)C1=CSC2=NC3=C(CCC/C3=C\c3ccc(Cl)cc3)C(c3ccc(Cl)cc3)N12 (stereo not drawn) and report it.
## Result 94.5

## Task Look up growth of Cc1c(C(N)=O)sc2c1c(=O)n(Cc1ccccc1)c1nnc(-c3ccc(Br)cc3)n21 and report it.
## Result 18.8

## Task Look up growth of Cc1c2cnccc2c(C)c2c1oc1ccccc12 and report it.
## Result 111

## Task Look up growth of CCOC(=O)c1cc(C(=O)c2cc(OC)cc(OC)c2)n2ncc3ccccc3c12 and report it.
## Result 42.9

## Task Look up growth of O=C(CSc1nccc(Nc2cccc3ccccc23)n1)c1ccc(Cl)cc1 and report it.
## Result 79.1

## Task Look up growth of COc1cc(-c2nn(-c3cccc(NC(=O)CCNc4ccc(N5CCOCC5)cc4)c3)cc2-c2ccncc2)ccc1Cl and report it.
## Result -9.17

====

# Test system: SF-268 CNS
# ASSAY NOTES: NCI-60 one-dose screen, 48 h (100 = growth as untreated, 0 = no growth, -100 = all killed)
# EXPERIMENTAL PARAMETERS: 10 µM
Compounds without any hit were thinned out: in the full panel of roughly 83,000, 20% have a hit.
Answer False if growth is under 80%, and True if it is 80% or more.

Example cases with answers are listed next.
record_smiles=Cc1ccc(NCCNCC(C)(C)O)c2c(=O)c3ccc(Cl)cc3sc12 cat=False
record_smiles=O=C(Nc1cc([N+](=O)[O-])c2[nH]c(=O)c3ccccc3c2c1)C(F)(F)F cat=True
record_smiles=CCn1c2ccc(O)cc2c2c(C)c3c[n+](C)ccc3c(C)c21 cat=False
record_smiles=O=S(=O)(Oc1ccc(-c2ccc3sccc3c2)cc1)c1ccccc1 cat=True

We now examine a further compound.
## Task Decide: growth of COc1ccccc1-n1c(-c2sc(NC(C)=O)nc2C)n[nH]c1=S >= 80%?
## Result True
